Hello, the source for this data is patent US20250179155A1, in case you need it.

# study-target: T1, TcdA-GTD (TcdA1-542) (Clostridioides difficile strain VPI10463, UniProt P16154 1-542)
# T1 construct: range 1-542; also called TcdA glucosyltransferase domain
# T1 sequence (P16154 1-542 limits assumed): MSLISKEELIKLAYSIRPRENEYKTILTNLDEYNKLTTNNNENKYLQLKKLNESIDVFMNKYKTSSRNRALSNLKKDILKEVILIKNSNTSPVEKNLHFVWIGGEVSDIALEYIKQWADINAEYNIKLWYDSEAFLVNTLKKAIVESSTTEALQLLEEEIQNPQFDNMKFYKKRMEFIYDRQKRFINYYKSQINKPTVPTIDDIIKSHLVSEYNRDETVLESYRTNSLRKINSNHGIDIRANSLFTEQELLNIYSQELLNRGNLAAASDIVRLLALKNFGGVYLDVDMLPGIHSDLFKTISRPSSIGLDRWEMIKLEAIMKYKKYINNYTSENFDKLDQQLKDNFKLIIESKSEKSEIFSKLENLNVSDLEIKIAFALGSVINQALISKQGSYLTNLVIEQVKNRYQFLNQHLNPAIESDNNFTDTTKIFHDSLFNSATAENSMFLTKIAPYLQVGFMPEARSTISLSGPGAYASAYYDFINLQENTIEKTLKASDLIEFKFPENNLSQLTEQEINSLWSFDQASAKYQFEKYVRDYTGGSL
# experimental-protocol: ELISA-like screen of clone lysates on isolated domains
outcome-measure: binding result

binder="A2G5 (VHH) VHH: QVQLQESGGGLVQAGGSLRLSCAVSGRTLSSYAMGWFRQALGKEREFVAGISRGGGMTRYTDSVKGRFTISRDDAKNTVYLQMNSLKPDDTAVYSCAASYALIDMSSAYDYWGQGTQVTVSS" measured_result="no binding"
binder="A1G6 (VHH) VHH: QVQLQESGGGLVQPGGSLRLSCAASGRAFSSYAMGWFRQTPGKEREFVAVISWSGGSTYYADSVKGRFTISRDNTKNMVYLQMMSLKPEDTAVYYCAADFSQPLLATVPDDYDYWGQGTQVTVSS" measured_result="no binding"
